Tested on: mouse
Assay: Determination of LD50 in the mouse by intravenous administration
Assay type: in vivo
Details: male and female mice, Strain: Crl:CDl(ICR)BR, range in parentheses
Excerpt: Determination of LD₅₀ in the mouse by intravenous administration of the compounds of the present invention. In table II are reported, as non-limiting examples, the LD₅₀ values for compounds A and B of the present invention, in comparison with GdCl₃ and with Gd/DTPA neutralized with N-methylglucamine.
Measured endpoint: LD₅₀ in the mouse* in mmol/kg - intravenous

As a guide, the following entries are already answered.
Molecule	System tested	Result
[Cl][Gd]([Cl])[Cl] [GdCl₃, reference compound]	mouse	0.28 (0.24 - 0.32) mmol/kg
CNC[C@H](O)[C@@H](O)[C@H](O)[C@H](O)CO.CNC[C@H](O)[C@@H](O)[C@H](O)[C@H](O)CO.O=C([O-])CN(CCN(CC(=O)[O-])CC(=O)O)CCN(CC(=O)[O-])CC(=O)O.[Gd+3] [Gd/DTPA, reference compound]	mouse	4.8 (4.47 - 5.16) mmol/kg

Hey, quick one: what's LD₅₀ in the mouse* in mmol/kg - intravenous for each of these?
1. C[NH2+]C[C@H](O)[C@@H](O)[C@H](O)[C@H](O)CO.O=C([O-])CN1CCN(CC(=O)[O-])CCN(C(COCc2ccccc2)C(=O)[O-])CCN(CC(=O)[O-])CC1.[Gd+3] (stereo not shown)
2. C[NH2+]C[C@H](O)[C@@H](O)[C@H](O)[C@H](O)CO.O=C([O-])CN1CCN(CC(=O)[O-])CCN(C(CO)C(=O)[O-])CCN(CC(=O)[O-])CC1.[Gd+3] (stereo not shown)

Response given:
8.8 (7.79 - 9.94) mmol/kg
13.1 (12.2 - 14.1) mmol/kg
